- procedureSummary: 14-day repeat IV dose toxicity study with toxicokinetic evaluation on Day 1 and 14 in dogs
- Format: in vivo, beagle dogs
- experimentalSetup: dog, in vivo, iv, 3 mg/kg/day, IV 3.0 mg/kg/day, male, Day 14, read-out: Vz
Ends that are not written are not given here.
endpoint: Vd (L/kg)
// units = L/kg; emit number, no label

Problem: Supply reported Vd belonging to this substance: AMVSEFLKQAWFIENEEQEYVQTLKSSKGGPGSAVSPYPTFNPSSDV-NH2 [Peptide 1]
Result: 0.238

---

- procedureSummary: 14-day repeat IV dose toxicity study with toxicokinetic evaluation on Day 1 and 14 in dogs
- Assay type: in vivo, beagle dogs
- experimentalSetup: dog, in vivo, iv, 10 mg/kg/day, IV 10 mg/kg/day, male, Day 1, read-out: Vz
- Procedure: Peptide 1 in blood samples collected from animals used in the studies (rat and dog) has been measured by an LC-MS/MS method. Analysis of samples collected in the pharmacokinetic study in rats was performed prior to validation of the method. Prior to analysis of samples from the GLP toxicology studies, the method was validated according to GLP to ensure that it is selective, accurate, reproducible, and able to produce reliable results. […]
Ends that are not written are not given here.
endpoint: Vd
Answers without a unit are incomplete; give the number and then its unit.

Problem: Supply reported Vd belonging to this substance: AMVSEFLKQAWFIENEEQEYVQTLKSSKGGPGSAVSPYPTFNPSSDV-NH2 [Peptide 1]
Result: 0.318 L/kg

---

- procedureSummary: Clinical test in humans, single 30-min i.v. infusion, plasma PK
- Format: in vivo
- experimentalSetup: human, in vivo, iv, single 30-min i.v. infusion 400 μg/kg, GM
Ends that are not written are not given here.
endpoint: clearance (mL/min/kg)
// units = mL/min/kg; emit number, no label

Problem: Supply reported clearance belonging to this substance: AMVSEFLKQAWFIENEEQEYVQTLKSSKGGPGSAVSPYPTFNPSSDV-NH2 [Peptide 1]
Result: 1.33

---

- procedureSummary: 14-day repeat dose IV toxicity study with toxicokinetic evaluation on Day 1 and Day 14 in rats
- Type: in vivo, Wistar rats
- experimentalSetup: rat, in vivo, iv, 1 mg/kg/day, IV 1.0 mg/kg/day, female, Day 14
Ends that are not written are not given here.
endpoint: C0
Answers without a unit are incomplete; give the number and then its unit.

Problem: Supply reported C0 belonging to this substance: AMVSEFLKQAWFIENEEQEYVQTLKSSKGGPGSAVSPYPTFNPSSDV-NH2 [Peptide 1]
Result: 10900 ng/mL

---

- procedureSummary: Clinical test in humans, single 30-min i.v. infusion, plasma PK
- Assay type: in vivo
- experimentalSetup: human, in vivo, iv, 50 ug/kg, single 30-min i.v. infusion 50 μg/kg, GM, read-out: t1/2 (converted)
Ends that are not written are not given here.
endpoint: half-life
Answers without a unit are incomplete; give the number and then its unit.

Problem: Supply reported half-life belonging to this substance: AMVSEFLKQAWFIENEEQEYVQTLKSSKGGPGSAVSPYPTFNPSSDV-NH2 [Peptide 1]
Result: 54 min

---

- procedureSummary: Clinical test in humans, single 30-min i.v. infusion, plasma PK
- Format: in vivo
- experimentalSetup: human, in vivo, iv, 150 ug/kg, single 30-min i.v. infusion 150 μg/kg, mean
Ends that are not written are not given here.
endpoint: Cmax (ng/mL)
// units = ng/mL; emit number, no label

Problem: Supply reported Cmax belonging to this substance: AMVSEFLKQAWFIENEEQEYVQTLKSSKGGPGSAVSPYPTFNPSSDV-NH2 [Peptide 1]
Result: 1280

---

- procedureSummary: Clinical test in humans, three 30-min i.v. infusions 8 hours apart, plasma PK
- Format: in vivo
- experimentalSetup: human, in vivo, iv, three 30-min i.v. infusions 8 h apart, 100 μg/kg each, mean, read-out: Global Cmax
- Description: A total of 8 subjects were included in each group. In each group, 6 subjects received the active treatment and 2 received the placebo. […] Plasma samples were analyzed for Peptide 1 using validated Liquid chromatography—Tandem Mass spectrometry (LC-MS/MS) methods by Charles River Laboratories (CRL). […]
Ends that are not written are not given here.
endpoint: Cmax (ng/mL)
// units = ng/mL; emit number, no label

Problem: Supply reported Cmax belonging to this substance: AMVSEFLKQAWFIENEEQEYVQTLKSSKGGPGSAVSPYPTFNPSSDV-NH2 [Peptide 1]
Result: 1020

---

- procedureSummary: 14-day repeat IV dose toxicity study with toxicokinetic evaluation on Day 1 and 14 in dogs
- Format: in vivo, beagle dogs
- experimentalSetup: dog, in vivo, iv, 1 mg/kg/day, IV 1.0 mg/kg/day, female, Day 1, read-out: T1/2
Ends that are not written are not given here.
endpoint: half-life (min)
// units = min; emit number, no label

Problem: Supply reported half-life belonging to this substance: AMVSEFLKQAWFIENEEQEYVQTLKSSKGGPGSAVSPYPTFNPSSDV-NH2 [Peptide 1]
Result: 4.83

---

- procedureSummary: 14-day repeat dose IV toxicity study with toxicokinetic evaluation on Day 1 and Day 14 in rats
- Assay type: in vivo, Wistar rats
- experimentalSetup: rat, in vivo, iv, 3 mg/kg/day, IV 3.0 mg/kg/day, female, Day 1, read-out: T1/2
Ends that are not written are not given here.
endpoint: half-life (min)
// units = min; emit number, no label

Problem: Supply reported half-life belonging to this substance: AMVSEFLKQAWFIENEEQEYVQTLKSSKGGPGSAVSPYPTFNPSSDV-NH2 [Peptide 1]
Result: 8

---

- procedureSummary: Clinical test in humans, single 30-min i.v. infusion, plasma PK
- Assay type: in vivo
- experimentalSetup: human, in vivo, iv, single 30-min i.v. infusion 25 μg/kg, mean, read-out: AUC0-24
- Experimental: A total of 8 healthy subjects were included in each group. […] In these groups, 6 subjects received the active treatment (i.e. a single Peptide 1 30-min intravenous (i.v.) infusion corresponding to the above doses) and 2 received the placebo. In order to prevent any anticipated unblinding, the subjects under active treatment were recorded by the bioanalytical laboratory. […]
Ends that are not written are not given here.
endpoint: AUC(0-t) (ng·h/mL)
// units = ng·h/mL; emit number, no label

Problem: Supply reported AUC(0-t) belonging to this substance: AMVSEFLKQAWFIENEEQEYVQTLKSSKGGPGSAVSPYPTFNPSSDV-NH2 [Peptide 1]
Result: 211

---

- procedureSummary: PK after single intravenous injection of Peptide 1 in male rats
- Parameters: species or system male Wistar (CRL: WI(Han)) rats
- experimentalSetup: rat, in vivo, iv, 0.1 mg/kg, single IV 0.1 mg/kg, terminal elimination phase, read-out: Vz
Ends that are not written are not given here.
endpoint: Vd (L/kg)
// units = L/kg; emit number, no label

Problem: Supply reported Vd belonging to this substance: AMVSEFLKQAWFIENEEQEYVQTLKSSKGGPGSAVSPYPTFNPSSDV-NH2 [Peptide 1]
Result: 0.261

---

- procedureSummary: Clinical test in humans, three 30-min i.v. infusions 8 hours apart, plasma PK
- Format: in vivo
- experimentalSetup: human, in vivo, iv, 200 ug/kg, three 30-min i.v. infusions 8 h apart, 200 μg/kg each, GM, read-out: AUC0-t2
Ends that are not written are not given here.
endpoint: AUC (ng·h/mL)
// units = ng·h/mL; emit number, no label

Problem: Supply reported AUC belonging to this substance: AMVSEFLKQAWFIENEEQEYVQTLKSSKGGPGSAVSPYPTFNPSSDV-NH2 [Peptide 1]
Result: 2560

---

- procedureSummary: 14-day repeat IV dose toxicity study with toxicokinetic evaluation on Day 1 and 14 in dogs
- Assay type: in vivo, beagle dogs
- experimentalSetup: dog, in vivo, iv, 10 mg/kg/day, IV 10 mg/kg/day, female, Day 1, read-out: Cl
Ends that are not written are not given here.
endpoint: clearance (mL/min/kg)
// units = mL/min/kg; emit number, no label

Problem: Supply reported clearance belonging to this substance: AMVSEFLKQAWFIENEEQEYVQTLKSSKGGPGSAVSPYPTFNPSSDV-NH2 [Peptide 1]
Result: 37.1

---

- procedureSummary: PK after single intravenous injection of Peptide 1 in male rats
- Set-up: species or system male Wistar (CRL: WI(Han)) rats
- experimentalSetup: rat, in vivo, iv, 10 mg/kg, single IV 10 mg/kg, initial elimination phase, read-out: T½
Ends that are not written are not given here.
endpoint: half-life (min)
// units = min; emit number, no label

Problem: Supply reported half-life belonging to this substance: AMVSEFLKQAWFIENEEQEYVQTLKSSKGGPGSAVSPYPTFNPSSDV-NH2 [Peptide 1]
Result: 7.64

---

- procedureSummary: 14-day repeat IV dose toxicity study with toxicokinetic evaluation on Day 1 and 14 in dogs
- Type: in vivo, beagle dogs
- experimentalSetup: dog, in vivo, iv, 3 mg/kg/day, IV 3.0 mg/kg/day, male, Day 14, read-out: T1/2
Ends that are not written are not given here.
endpoint: half-life
Answers without a unit are incomplete; give the number and then its unit.

Problem: Supply reported half-life belonging to this substance: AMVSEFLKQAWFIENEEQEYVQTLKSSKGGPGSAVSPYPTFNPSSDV-NH2 [Peptide 1]
Result: 6.05 min
